Provide the recorded HDAC3 activity raw data (signal) for the entries that follow.
target: HDAC3 (Homo sapiens, UniProt O15379); construct: purchased Reaction Biology Corporation (assay run by the CRO); assay: HDAC3 inhibition, full IC50 measurement (Reaction Biology; fluorogenic p53 peptide RHKK(Ac)AMC); type: biochemical; conditions: Conc. 4.12E-08 M, t2
Sequence (O15379 whole entry): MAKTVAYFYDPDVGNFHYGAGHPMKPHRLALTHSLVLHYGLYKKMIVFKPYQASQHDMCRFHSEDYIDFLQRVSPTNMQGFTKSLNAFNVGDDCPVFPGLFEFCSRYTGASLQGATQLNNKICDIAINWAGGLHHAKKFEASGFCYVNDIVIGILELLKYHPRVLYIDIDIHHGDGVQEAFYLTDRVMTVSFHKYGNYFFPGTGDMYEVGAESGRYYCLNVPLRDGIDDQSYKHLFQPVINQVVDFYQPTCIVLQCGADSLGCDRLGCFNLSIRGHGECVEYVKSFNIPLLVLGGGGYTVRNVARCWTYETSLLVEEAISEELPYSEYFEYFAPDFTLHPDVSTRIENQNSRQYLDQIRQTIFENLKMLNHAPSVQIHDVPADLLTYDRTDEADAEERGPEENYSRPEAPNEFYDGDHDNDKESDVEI
Sequence (Q9Y618 395-489 partner limits assumed): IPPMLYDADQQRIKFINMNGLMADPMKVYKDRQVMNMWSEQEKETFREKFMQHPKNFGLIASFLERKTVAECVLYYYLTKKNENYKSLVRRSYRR
Peptide text beside a SMILES is read from it.
Respond with the number and no other words.

Fill in reported HDAC3 activity raw data (signal) for this entry: CCCC[C@H]1NC(=O)[C@H](Cc2ccccc2)NC(=O)[C@H](CCCCCS)NC(=O)[C@@H](CCCNC(=N)N)NC(=O)[C@H](CC(=O)O)NC(=O)[C@@H](CO)NC(=O)[C@@H](C)NC(=O)[C@H](CCCCN)NC1=O [des4.3.1, SHA-Phe-dNle-Lys-dAla-dSer-Asp-dArg] (HELM PEPTIDE1{D.[dR].[O=C([C@H](CCCCCS)N[*:1])[*:2]].F.[CCCC[C@@H](N[*:1])C(=O)[*:2]].K.[dA].[dS]}$PEPTIDE1,PEPTIDE1,1:R1-8:R2$$$V2.0)
1249169

Fill in reported HDAC3 activity raw data (signal) for this entry: NCCCC[C@@H]1NC(=O)[C@@H]2CCCN2C(=O)[C@H](CC(N)=O)NC(=O)[C@H](CCCCCS)NC(=O)CNC(=O)[C@H](Cc2c[nH]c3ccccc23)NC(=O)[C@@H](CCCCN)NC(=O)[C@H](CCC(N)=O)NC1=O [des1.1.0, SHA-Asn-Pro-Lys-Gln-dLys-Trp-Gly] (HELM PEPTIDE1{G.[O=C([C@H](CCCCCS)N[*:1])[*:2]].N.P.K.Q.[dK].W}$PEPTIDE1,PEPTIDE1,1:R1-8:R2$$$V2.0)
799167

Fill in reported HDAC3 activity raw data (signal) for this entry: CC(C)[C@@H]1NC(=O)[C@H](CCCNC(=N)N)NC(=O)[C@@H](CC(=O)O)NC(=O)[C@H](CO)NC(=O)[C@@H](CO)NC(=O)[C@@H](CCC(=O)O)NC(=O)[C@H](Cc2ccc(O)cc2)NC(=O)[C@H](CCCCCS)NC1=O [des4.2.0, SHA-Tyr-dGlu-dSer-Ser-dAsp-Arg-Val] (HELM PEPTIDE1{R.V.[O=C([C@H](CCCCCS)N[*:1])[*:2]].Y.[dE].[dS].S.[dD]}$PEPTIDE1,PEPTIDE1,1:R1-8:R2$$$V2.0)
863981

Fill in reported HDAC3 activity raw data (signal) for this entry: NCCCC[C@H]1NC(=O)[C@H](CCC(N)=O)NC(=O)[C@H](CCC(=O)O)NC(=O)[C@@H]2CCCN2C(=O)[C@H](CC(N)=O)NC(=O)[C@H](CCCCCS)NC(=O)CNC(=O)[C@H](Cc2c[nH]c3ccccc23)NC1=O [des1.1.1, SHA-Asn-Pro-Glu-Gln-dLys-Trp-Gly] (HELM PEPTIDE1{E.Q.[dK].W.G.[O=C([C@H](CCCCCS)N[*:1])[*:2]].N.P}$PEPTIDE1,PEPTIDE1,1:R1-8:R2$$$V2.0)
884895

Fill in reported HDAC3 activity raw data (signal) for this entry: CC(C)C[C@H]1NC(=O)[C@H](Cc2c[nH]c3ccccc23)NC(=O)[C@H](CCCCCS)NC(=O)[C@@H](Cc2ccc(O)cc2)NC(=O)[C@@H](C(C)C)NC(=O)[C@H](Cc2c[nH]cn2)NC(=O)CNC(=O)CNC(=O)[C@@H](CO)NC1=O [des2.2.0, SHA-Trp-dLeu-dSer-Gly-Gly-His-dVal-dTyr] (HELM PEPTIDE1{G.G.H.[dV].[dY].[O=C([C@H](CCCCCS)N[*:1])[*:2]].W.[dL].[dS]}$PEPTIDE1,PEPTIDE1,1:R1-9:R2$$$V2.0)
1094012

Fill in reported HDAC3 activity raw data (signal) for this entry: N=C(N)NCCC[C@@H]1NC(=O)[C@H](Cc2c[nH]c3ccccc23)NC(=O)[C@H](CC(=O)O)NC(=O)[C@@H](CO)NC(=O)[C@H](Cc2c[nH]c3ccccc23)NC(=O)[C@H](CCCCCS)NC(=O)[C@H](CCC(N)=O)NC1=O [des4.1.0, SHA-Trp-dSer-Asp-Trp-Arg-Gln] (HELM PEPTIDE1{D.W.R.Q.[O=C([C@H](CCCCCS)N[*:1])[*:2]].W.[dS]}$PEPTIDE1,PEPTIDE1,1:R1-7:R2$$$V2.0)
656036

Fill in reported HDAC3 activity raw data (signal) for this entry: N=C(N)NCCC[C@H]1NC(=O)[C@@H]2CCCN2C(=O)[C@H](CO)NC(=O)[C@@H](Cc2c[nH]cn2)NC(=O)[C@H](CCCCCS)NC(=O)[C@H](CCCCN)NC(=O)[C@H](Cc2ccc(O)cc2)NC(=O)[C@H]2CCCN2C(=O)[C@@H](CCC(N)=O)NC1=O [des3.1.0, SHA-dHis-Ser-Pro-dArg-dGln-dPro-Tyr-Lys] (HELM PEPTIDE1{K.[O=C([C@H](CCCCCS)N[*:1])[*:2]].[dH].S.P.[dR].[dQ].[dP].Y}$PEPTIDE1,PEPTIDE1,1:R1-9:R2$$$V2.0)
959771

Fill in reported HDAC3 activity raw data (signal) for this entry: CSCC[C@H]1NC(=O)[C@@H](CO)NC(=O)[C@H](CC(N)=O)NC(=O)[C@H](CC(=O)O)NC(=O)[C@@H]([C@H](C)O)NC(=O)[C@H](Cc2c[nH]c3ccccc23)NC(=O)[C@H](CCCCCS)NC(=O)[C@H](CCCCN)NC(=O)[C@@H](CC(=O)O)NC1=O [des2.1.1, SHA-Trp-dThr-Asp-Asn-dSer-dMet-dAsp-Lys] (HELM PEPTIDE1{D.N.[dS].[dM].[dD].K.[O=C([C@H](CCCCCS)N[*:1])[*:2]].W.[dT]}$PEPTIDE1,PEPTIDE1,1:R1-9:R2$$$V2.0)
457810
